biological target: Cathepsin B (Homo sapiens)
Field 'label' (enum: label 1 / label 0). Set to label 1 when IC50 is strictly under 70 nM; else label 0.

smiles.record: CCOC(=O)/C=C/[C@H](O)[C@H](CCc1ccccc1)NC(=O)[C@H](Cc1ccccc1)NC(=O)OCc1ccccc1
assigned.category: label 0

smiles.record: CCOC(=O)/C=C/C=C/C(=O)[C@H](CCc1ccccc1)NC(=O)[C@H](Cc1ccccc1)NC(=O)N1CCOCC1
assigned.category: label 0

smiles.record: CCOC(=O)/C=C/C(=O)[C@@H](CCc1ccccc1)NC(=O)[C@H](Cc1ccccc1)NC(=O)N1CCOCC1
assigned.category: label 0

Exam item: Find out if reported IC50 for CCOC(=O)/C=C/C(=O)[C@@H](CC(C)C)NC(=O)[C@H](Cc1ccccc1)NC(=O)OCc1ccccc1 is less than 70 nM
Marked response: label 1

----------
target: Falcipain 2 (Plasmodium falciparum) (UniProt Q9N6S8); experiment: Inhibition of Plasmodium falciparum falcipain-2 at 20 uM using Cbz-Phe-Arg-AMC as substrate measured for 15 mins by spectrofluorimetric method relative to control
Sequence (Q9N6S8 as listed by the source): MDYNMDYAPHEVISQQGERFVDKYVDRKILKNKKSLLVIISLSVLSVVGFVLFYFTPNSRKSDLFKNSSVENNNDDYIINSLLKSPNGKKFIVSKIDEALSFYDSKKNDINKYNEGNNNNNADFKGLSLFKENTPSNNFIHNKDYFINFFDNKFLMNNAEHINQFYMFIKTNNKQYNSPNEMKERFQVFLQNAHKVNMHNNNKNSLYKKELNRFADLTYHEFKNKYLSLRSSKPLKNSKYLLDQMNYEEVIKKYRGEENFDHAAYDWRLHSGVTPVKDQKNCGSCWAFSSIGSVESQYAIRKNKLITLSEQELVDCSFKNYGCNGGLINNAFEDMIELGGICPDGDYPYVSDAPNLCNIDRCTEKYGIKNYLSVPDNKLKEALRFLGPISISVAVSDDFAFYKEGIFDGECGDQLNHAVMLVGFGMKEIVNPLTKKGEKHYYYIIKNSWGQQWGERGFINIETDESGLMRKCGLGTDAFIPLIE
Answer Not fulfilled if inhibition is under 40%, and Fulfilled if it is 40% or more.

smiles.record: CCOC(=O)/C=C/[C@H](O)[C@H](CCc1ccccc1)C(=O)N[C@@H](CC(C)C)C(=O)OC
experimental.target: Falcipain 2 (Plasmodium falciparum) (UniProt Q9N6S8)
assigned.category: Not fulfilled
//
smiles.record: CCOC(=O)/C=C/C(=O)[C@H](CCc1ccccc1)NC(=O)[C@H](Cc1ccccc1)NC(=O)OCc1ccccc1
experimental.target: Falcipain 2 (Plasmodium falciparum) (UniProt Q9N6S8)
assigned.category: Fulfilled
//
smiles.record: CCOC(=O)/C=C/[C@@H](O)[C@H](CCc1ccccc1)NC(=O)[C@H](CC(C)C)NC(=O)OCc1ccccc1
experimental.target: Falcipain 2 (Plasmodium falciparum) (UniProt Q9N6S8)
assigned.category: Not fulfilled

Please examine the following record next.
Exam item: decide whether the reported inhibition for CCOC(=O)/C=C/C(=O)[C@H](C)NC(=O)[C@H](CC(C)C)NC(=O)OCc1ccccc1 is at least 40%.
Marked response: Fulfilled

----------
target: Procathepsin L (Homo sapiens, UniProt P07711); assay: Inhibition of human cathepsin L assessed as second order rate constant using Cbz-Phe-Arg-AMC as substrate
Sequence (P07711 114-333 limits assumed): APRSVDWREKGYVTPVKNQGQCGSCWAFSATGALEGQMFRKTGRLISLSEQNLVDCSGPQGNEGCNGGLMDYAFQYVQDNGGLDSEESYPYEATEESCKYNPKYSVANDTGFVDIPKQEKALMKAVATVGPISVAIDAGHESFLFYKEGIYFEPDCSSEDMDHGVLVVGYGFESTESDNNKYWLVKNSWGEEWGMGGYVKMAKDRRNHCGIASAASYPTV
Answer not fulfilled if K is under 50000 M⁻¹ s⁻¹, and fulfilled if it is 50000 M⁻¹ s⁻¹ or more.

smiles.record: CCOC(=O)/C=C/C(=O)[C@H](C)NC(=O)[C@H](Cc1ccccc1)NC(=O)OCc1ccccc1
assigned.category: fulfilled

Exam item: decide whether the reported K for CCOC(=O)/C=C/C(=O)[C@@H](CC(C)C)NC(=O)[C@H](Cc1ccccc1)NC(=O)OCc1ccccc1 is at least 50000 M⁻¹ s⁻¹.
Marked response: fulfilled

Exam item: decide whether the reported K for CCOC(=O)/C=C/[C@@H](O)[C@H](CCc1ccccc1)NC(=O)[C@H](Cc1ccccc1)NC(=O)N1CCOCC1 is at least 50000 M⁻¹ s⁻¹.
Marked response: not fulfilled

----------
Let's look at some molecules and their measured inhibition.
molecular target: Falcipain 2 (Plasmodium falciparum); experiment: Inhibition of Plasmodium falciparum falcipain-2 at 20 uM using Cbz-Phe-Arg-AMC as substrate measured for 15 mins by spectrofluorimetric method relative to control
Entry rule: numbers only, all in %.

smiles.record: CCOC(=O)/C=C/[C@@H](O)[C@H](C)NC(=O)[C@H](Cc1ccccc1)NC(=O)OCc1ccccc1
recorded.metric: inhibition
reported.result: 41

smiles.record: CCOC(=O)/C=C/C(=O)[C@H](C)NC(=O)[C@H](Cc1ccccc1)NC(=O)OCc1ccccc1
recorded.metric: inhibition
reported.result: 99

smiles.record: CCOC(=O)/C=C/[C@H](O)[C@H](CCc1ccccc1)NC(=O)[C@H](Cc1ccccc1)NC(=O)OCc1ccccc1
recorded.metric: inhibition
reported.result: 22

smiles.record: O=C(O)/C=C/[C@@H](O)[C@H](CCc1ccccc1)NC(=O)[C@H](Cc1ccccc1)NC(=O)OCc1ccccc1
recorded.metric: inhibition
reported.result: 24

smiles.record: CCOC(=O)/C=C/[C@H](O)[C@H](CCc1ccccc1)C(=O)N[C@@H](CC(C)C)C(=O)OCc1ccccc1
recorded.metric: inhibition
reported.result: 5

smiles.record: CCOC(=O)/C=C/[C@H](O)[C@H](CCc1ccccc1)C(=O)N[C@@H](Cc1ccccc1)C(=O)OCc1ccccc1
recorded.metric: inhibition
reported.result: 5

smiles.record: CCOC(=O)/C=C/[C@H](O)[C@H](CCc1ccccc1)C(=O)N[C@@H](Cc1ccccc1)C(=O)OC
recorded.metric: inhibition
reported.result: 9

Exam item: Supply inhibition value. Item: CCOC(=O)/C=C/C(=O)[C@H](CCc1ccccc1)NC(=O)[C@H](CC(C)C)NC(=O)OCc1ccccc1
Marked response: 98

----------
target: Cathepsin B (Homo sapiens, UniProt P07858); experiment: Inhibition of human cathepsin B at 20 uM using Cbz-Phe-Arg-AMC as substrate relative to control
recorded.metric: inhibition (%)
Entry rule: numbers only, all in %.

Would you please look over these solved cases?
smiles.record: CCOC(=O)/C=C/[C@@H](O)[C@H](C)NC(=O)[C@H](Cc1ccccc1)NC(=O)OCc1ccccc1
inhibition / %: 26
//
smiles.record: CCOC(=O)/C=C/[C@H](O)[C@H](CCc1ccccc1)NC(=O)[C@H](Cc1ccccc1)NC(=O)OCc1ccccc1
inhibition / %: 35
//
smiles.record: CCOC(=O)/C=C/C(=O)[C@@H](CCc1ccccc1)NC(=O)[C@H](Cc1ccccc1)NC(=O)N1CCOCC1
inhibition / %: 99
//
smiles.record: CCOC(=O)/C=C/C(=O)[C@H](CCc1ccccc1)NC(=O)[C@H](Cc1ccccc1)NC(=O)N1CCOCC1
inhibition / %: 100
//
smiles.record: CCOC(=O)/C=C/[C@@H](O)[C@H](CCc1ccccc1)NC(=O)[C@H](Cc1ccccc1)NC(=O)N1CCOCC1
inhibition / %: 100
//
smiles.record: CCOC(=O)/C=C/C(=O)[C@@H](CC(C)C)NC(=O)[C@H](Cc1ccccc1)NC(=O)OCc1ccccc1
inhibition / %: 100
//
smiles.record: CCOC(=O)/C=C/[C@H](O)[C@H](CCc1ccccc1)C(=O)N[C@@H](CC(C)C)C(=O)OC
inhibition / %: 0

For the next question, use this compound.
Exam item: Supply inhibition value. Item: CCOC(=O)/C=C/[C@H](O)[C@H](CCc1ccccc1)C(=O)N[C@@H](Cc1ccccc1)C(=O)OC
Marked response: 0

----------
target: Cruzipain (Trypanosoma cruzi, UniProt P25779)
Sequence (P25779 whole entry): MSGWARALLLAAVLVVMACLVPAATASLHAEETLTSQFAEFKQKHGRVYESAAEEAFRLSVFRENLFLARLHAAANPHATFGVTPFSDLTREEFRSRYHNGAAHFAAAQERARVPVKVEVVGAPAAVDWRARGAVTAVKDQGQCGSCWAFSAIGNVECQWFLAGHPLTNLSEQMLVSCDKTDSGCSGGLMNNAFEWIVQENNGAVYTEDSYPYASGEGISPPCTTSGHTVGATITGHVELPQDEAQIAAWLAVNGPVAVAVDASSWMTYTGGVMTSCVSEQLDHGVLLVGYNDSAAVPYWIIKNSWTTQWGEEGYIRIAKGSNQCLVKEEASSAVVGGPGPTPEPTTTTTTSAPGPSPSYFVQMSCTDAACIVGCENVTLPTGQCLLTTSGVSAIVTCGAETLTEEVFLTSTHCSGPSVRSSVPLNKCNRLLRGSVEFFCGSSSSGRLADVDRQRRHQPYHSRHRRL
pIC50: −log10 of the molar value.
Answer 0.0 if pIC50 is under 7, and 1.0 if it is 7 or more.

Here are 3 compounds together with their reported answers.
smiles.record: CCOC(=O)/C=C/C(=O)[C@@H](CC(C)C)NC(=O)[C@H](Cc1ccccc1)NC(=O)OCc1ccccc1
assigned.category: 1.0
--
smiles.record: CCOC(=O)/C=C/C(=O)[C@H](CCc1ccccc1)NC(=O)[C@H](Cc1ccccc1)NC(=O)N1CCOCC1
assigned.category: 0.0
--
smiles.record: CCOC(=O)/C=C/C(=O)[C@H](CC(C)C)NC(=O)[C@H](Cc1ccccc1)NC(=O)OCc1ccccc1
assigned.category: 1.0

Please examine the following record next.
Exam item: decide whether the reported pIC50 for CCOC(=O)/C=C/C(=O)[C@H](C)NC(=O)[C@H](Cc1ccccc1)NC(=O)OCc1ccccc1 is at least 7.
Marked response: 0.0

----------
target: Cruzipain (Trypanosoma cruzi) (UniProt P25779); experiment: Inhibition of Trypanosoma cruzi cruzain assessed as second-order rate constant
Sequence (P25779 123-467 limits assumed): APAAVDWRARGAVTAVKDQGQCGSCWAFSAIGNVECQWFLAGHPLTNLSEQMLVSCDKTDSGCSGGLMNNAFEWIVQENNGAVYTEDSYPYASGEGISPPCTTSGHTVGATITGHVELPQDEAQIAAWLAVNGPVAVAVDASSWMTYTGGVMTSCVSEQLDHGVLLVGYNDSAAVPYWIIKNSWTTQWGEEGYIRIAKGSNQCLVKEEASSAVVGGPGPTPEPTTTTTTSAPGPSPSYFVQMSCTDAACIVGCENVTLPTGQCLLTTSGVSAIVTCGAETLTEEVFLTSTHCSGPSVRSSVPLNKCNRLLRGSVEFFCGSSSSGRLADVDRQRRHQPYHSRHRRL
recorded.metric: K (M⁻¹ s⁻¹)
Entry rule: numbers only, all in M⁻¹ s⁻¹.

Would you please look over these solved cases?
smiles.record: CCOC(=O)/C=C/C(=O)[C@H](CCc1ccccc1)NC(=O)[C@H](CC(C)C)NC(=O)N1CCOCC1
value.unit: M⁻¹ s⁻¹
K: 5600
--
smiles.record: CCOC(=O)/C=C/C(=O)[C@H](C)NC(=O)[C@H](Cc1ccccc1)NC(=O)OCc1ccccc1
value.unit: M⁻¹ s⁻¹
K: 140000
--
smiles.record: CCOC(=O)/C=C/C(=O)[C@H](CC(C)C)NC(=O)[C@H](Cc1ccccc1)NC(=O)OCc1ccccc1
value.unit: M⁻¹ s⁻¹
K: 517000
--
smiles.record: CCOC(=O)/C=C/C(=O)[C@H](CCc1ccccc1)NC(=O)[C@H](Cc1ccccc1)NC(=O)N1CCOCC1
value.unit: M⁻¹ s⁻¹
K: 23400
--
smiles.record: CCOC(=O)/C=C/C(=O)[C@@H](CCc1ccccc1)NC(=O)[C@H](Cc1ccccc1)NC(=O)N1CCOCC1
value.unit: M⁻¹ s⁻¹
K: 22000

Exam item: Consider the compound CCOC(=O)/C=C/C=C/C(=O)[C@H](CCc1ccccc1)NC(=O)[C@H](Cc1ccccc1)NC(=O)N1CCOCC1 tested on Cruzipain (Trypanosoma cruzi) (UniProt P25779); state its K.
Marked response: 0.56

Exam item: Consider the compound CCOC(=O)/C=C/C(=O)[C@@H](CC(C)C)NC(=O)[C@H](Cc1ccccc1)NC(=O)OCc1ccccc1 tested on Cruzipain (Trypanosoma cruzi) (UniProt P25779); state its K.
Marked response: 312000

Where these numbers come from: ChEMBL document CHEMBL4229471
